Data provenance: patent US20230365571A1

- Assay Target: UniProt:Q8TCT8
- Method Summary: Sppl2a RGA (reporter gene assay) in HEK293 cells
- Format: cell-based
- Design: expressed in transfected cells; host or cells: HEK293 (transient)
- Reported Conditions: NT-TNF-VP16-Gal4 substrate, Gal4-luciferase reporter, 24 h
Readout Type: pIC50
// pIC50 here means minus log10 of the molar concentration (mol/L)

Sample records with pIC50:
The reported pIC50 of the compound Cc1nc(NC(=O)C(C)C)sc1C(=O)NC[C@H](C(=O)N[C@@H]1C(=O)N2CCCN2Cc2ccccc21)C(F)(F)F was 8.52

Looking up CCNC(=O)c1nc(C)c(C(=O)NC[C@@H](CC)C(=O)N[C@@H]2C(=O)N3CCCN3Cc3ccccc32)s1 , I found its pIC50 recorded as 8.30

Consider Cc1noc(C)c1C(=O)NC[C@H](C(=O)N[C@@H]1C(=O)N2CCCN2C(=O)c2ccccc21)C(F)(F)F . Its measured pIC50 is 7.66

What the record says about CCn1nc(-c2ccco2)cc1NC(=O)C[C@@H](C)C(=O)N[C@@H]1C(=O)N2CCCN2Cc2ccccc21 : pIC50 is 7.66

Just so you know, measured pIC50 for C[C@H](CC(=O)Nc1cc(C(=O)NCC(F)F)nn1C)C(=O)N[C@@H]1C(=O)N2CCCN2Cc2ccccc21 came out at 7.85

***
# compound O=C(C[C@H](C(=O)N[C@@H]1C(=O)N2CC3(CC3)CN2C(=O)c2ccccc21)C1CC1)Nc1sc(-c2ccc(C(F)(F)F)nc2)nc1Cl ; its pIC50 = 8.10

compound Cc1cncc(-c2cc(NC(=O)C[C@@H](C)C(=O)N[C@@H]3C(=O)N4CCCN4Cc4ccccc43)n(C)n2)c1 , pIC50 observed: 7.89

---

Each entry below carries its reported IC50.
- Assay Target: human SPPL2a (Homo sapiens, UniProt Q8TCT8)
- Sequence (Q8TCT8 26-520): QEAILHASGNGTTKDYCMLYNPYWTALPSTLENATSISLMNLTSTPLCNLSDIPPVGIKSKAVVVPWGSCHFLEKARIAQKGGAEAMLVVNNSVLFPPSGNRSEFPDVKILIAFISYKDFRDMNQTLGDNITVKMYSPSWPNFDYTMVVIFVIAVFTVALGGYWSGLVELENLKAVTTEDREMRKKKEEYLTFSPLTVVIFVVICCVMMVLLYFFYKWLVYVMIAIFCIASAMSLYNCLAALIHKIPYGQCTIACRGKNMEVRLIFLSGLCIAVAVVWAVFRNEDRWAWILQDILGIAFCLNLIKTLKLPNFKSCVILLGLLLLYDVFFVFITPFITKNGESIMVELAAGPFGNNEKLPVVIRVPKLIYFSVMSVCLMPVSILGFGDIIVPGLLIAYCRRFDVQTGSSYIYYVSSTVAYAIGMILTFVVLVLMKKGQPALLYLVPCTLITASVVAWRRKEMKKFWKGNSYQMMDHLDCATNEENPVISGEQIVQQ
- Method Summary: Sppl2a RGA (reporter gene assay) in HEK293 cells
- Assay type: cell-based
- Design: expressed in transfected cells; host or cells: HEK293 (transient)
- Reported Conditions: NT-TNF-VP16-Gal4 substrate, Gal4-luciferase reporter, 24 h
- Description: Sppl2a RGA (Reporter Gene Assay): Sppl2a is an intramembrane aspartyl protease with similarities to presenilin, the active subunit of the γ-secretase complex. […] The luciferase dependent-luminescence is plotted against the concentrations of compound to generate a dose response curve, which allows the calculation of the IC50 value. […]
Give the quantity in nM, number only.

Worked set:
Given item CC[C@H](CNC(=O)c1c(C)noc1C(F)(F)F)C(=O)N[C@@H]1C(=O)N2CC3(CC3)CN2C(=O)c2ccccc21 , the value recorded as its IC50 is 22

Record Cc1nc(NC(=O)C(C)C)sc1C(=O)NC[C@@H](C)C(=O)N[C@@H]1C(=O)N2CCCN2Cc2ccccc21 , field IC50: 12

IC50 measured on CC[C@H](CNC(=O)c1sc(C2CC2)nc1C)C(=O)N[C@@H]1C(=O)N2CCCN2Cc2ccccc21 = 41

Next:
IC50 reported for this compound CC[C@H](CNC(=O)c1sc(-c2cc(C)no2)nc1C)C(=O)N[C@@H]1C(=O)N2CCCN2Cc2ccccc21 : 220

Entry Cc1cccc(C)c1NC(=O)c1cc(NC(=O)C[C@@H](C)C(=O)N[C@@H]2C(=O)N3CCCN3Cc3ccccc32)n(C)n1 ; IC50 = 20

Form: compound = C[C@H](CC(=O)Nc1cn(-c2ccc(C(F)(F)F)nc2)nc1Cl)C(=O)N[C@@H]1C(=O)N2CCCN2Cc2ccccc21 ; IC50 = 7

// IC50 lookup, compound = CNC(=O)c1nc(C)c(C(=O)NC[C@H](C(=O)N[C@@H]2C(=O)N3CCCN3Cc3ccccc32)C2CC2)s1 , result: 4

---

- Assay Target: human SPPL2a (Homo sapiens)
- Method Summary: Sppl2a TL (translocation) imaging assay in U-2 OS cells
- Type: cell-based
- Set-up: expressed in transfected cells
- Reported Conditions: U-2 OS cells expressing human SPPL2a and EGFP-TNFα(aa1-76) NTF substrate; 24 h
IC50 values, listed per item
Please reply with the bare figure in nM and do not write the unit itself.

Please review the following examples before continuing.
The molecule identified as CNC(=O)c1nc(C)c(C(=O)NC[C@H](C(=O)N[C@@H]2C(=O)N3CCCN3Cc3ccccc32)C(F)(F)F)s1 registered its IC50 at 4

The recorded IC50 for CC[C@H](CNC(=O)c1sc(C2CC2)nc1C)C(=O)N[C@@H]1C(=O)N2CCCN2Cc2ccccc21 is 83

Sample CC(C)NC(=O)c1nc(Cl)c(C(=O)NC[C@@H](C)C(=O)N[C@@H]2C(=O)N3CCCN3Cc3ccccc32)s1 ; IC50 observed: 14

Let's switch to this molecule now.
The measured IC50 associated with COCc1nc(C)c(C(=O)NC[C@H](C(=O)N[C@@H]2C(=O)N3CCCN3Cc3ccccc32)C(F)(F)F)s1 reads 118

---

Reported IC50 values are given for each entry in this list.
- Assay Target: human SPPL2a (Homo sapiens)
- Method Summary: Sppl2a TL (translocation) imaging assay in U-2 OS cells
- Type: cell-based
- Set-up: expressed in transfected cells
- Reported Conditions: U-2 OS cells expressing human SPPL2a and EGFP-TNFα(aa1-76) NTF substrate; 24 h
Only the number, expressed in nM, is required.

Examples with answers:
Data point: Cc1nc(C(=O)NC(C)C)sc1C(=O)NC[C@H](C(=O)N[C@@H]1C(=O)N2CCCN2Cc2ccccc21)C1CC1 ; IC50 = 26

The molecule Cc1ccn(C)c1C(=O)NC[C@@H](C)C(=O)N[C@@H]1C(=O)N2CCCN2Cc2ccccc21 showed IC50 equal to 580

***
The molecule listed as CC(C)C(=O)Nc1cc(NC(=O)C[C@H](C(=O)N[C@@H]2C(=O)N3CC4(CC4)CN3C(=O)c3ccccc32)C2CC2)n(C)n1 shows IC50 equal to 12

The molecule identified as O=C(C[C@H](C(=O)N[C@@H]1C(=O)N2CCCN2C(=O)c2ccccc21)C1CC1)Nc1sc(-c2cnn(C(F)F)c2)nc1Cl registered its IC50 at 17

---

- Assay Target: Sppl2a CD74 (Mus musculus, UniProt Q9JJF9)
- Construct: Mouse whole blood Balb/c mice (sodium citrate) was ordered by Bioreclamation LLC; tissue Bioreclamation LLC
- Sequence (Q9JJF9 26-523): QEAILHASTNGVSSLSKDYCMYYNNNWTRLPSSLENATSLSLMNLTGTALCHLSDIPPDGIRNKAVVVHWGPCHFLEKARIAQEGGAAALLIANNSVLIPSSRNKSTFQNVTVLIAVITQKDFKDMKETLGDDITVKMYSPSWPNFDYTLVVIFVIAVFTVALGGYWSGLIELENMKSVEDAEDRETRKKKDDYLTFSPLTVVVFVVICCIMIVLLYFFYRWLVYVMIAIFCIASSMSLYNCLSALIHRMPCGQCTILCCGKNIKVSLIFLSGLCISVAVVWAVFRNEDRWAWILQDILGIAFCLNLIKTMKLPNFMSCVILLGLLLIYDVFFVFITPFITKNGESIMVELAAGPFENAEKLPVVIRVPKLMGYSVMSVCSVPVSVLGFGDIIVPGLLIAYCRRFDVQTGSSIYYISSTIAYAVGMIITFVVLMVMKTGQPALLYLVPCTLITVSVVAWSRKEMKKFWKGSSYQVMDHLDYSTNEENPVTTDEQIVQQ
- Method Summary: CD74/p8 mouse whole blood assay, flow cytometry format
- Reported Conditions: Balb/c mouse whole blood, 5 h, CD74 signal on gated live B cells
Readout Type: IC50 (µM)
Express your answer in µM, writing the number without its unit.

Completed entries (count: 6):
Entry under test: Cc1nc(NC(=O)C(C)C)sc1C(=O)NC[C@@H](C)C(=O)N[C@@H]1C(=O)N2CCCN2Cc2ccccc21 [Example 4] . Its IC50 was 0.1

Data point: CC(C)C(=O)Nc1cc(NC(=O)C[C@H](C(=O)N[C@@H]2C(=O)N3CC4(CC4)CN3C(=O)c3ccccc32)C2CC2)n(C)n1 [Example 93] ; IC50 = 1.13

// CC[C@H](CNC(=O)c1sc(-c2ccno2)nc1C)C(=O)N[C@@H]1C(=O)N2CCCN2Cc2ccccc21 [Example 32] : IC50 value = 0.174

Please fill in: IC50 reported for CNC(=O)c1nc(C)c(C(=O)NC[C@H](C(=O)N[C@@H]2C(=O)N3CCCN3Cc3ccccc32)C2CC2)s1 [Example 9] = 0.157

For reference, reported IC50 for CC(C)NC(=O)c1cc(NC(=O)C[C@H](C(=O)N[C@@H]2C(=O)N3CCCN3Cc3c(F)cccc32)C2CC2)n(C)n1 [Example 77] stands at 0.25

GET /value?item= CC[C@H](CNC(=O)c1sc(C2CC2)nc1C)C(=O)N[C@@H]1C(=O)N2CCCN2Cc2ccccc21 [Example 47] &field=IC50 returns 0.741

Now for another entry.
Lookup result for Cc1cc(-c2cc(NC(=O)C[C@@H](C)C(=O)N[C@@H]3C(=O)N4CCCN4Cc4ccccc43)n(C)n2)no1 [Example 80] ; measured IC50: 0.91

---

- Assay Target: human SPPL2a (Homo sapiens, UniProt Q8TCT8)
- Method Summary: Sppl2a TL (translocation) imaging assay in U-2 OS cells
- Format: cell-based
- Design: expressed in transfected cells
- Reported Conditions: U-2 OS cells expressing human SPPL2a and EGFP-TNFα(aa1-76) NTF substrate; 24 h
pIC50: recorded values
Would you please state pIC50, meaning minus log10 of the concentration in mol/L, as a bare number?

Please review the entries below; each comes with its answer.
pIC50 of Cc1cc(-c2nc(C)c(C(=O)NC[C@H](C(=O)N[C@@H]3C(=O)N4CCCN4C(=O)c4ccccc43)C3CC3)s2)on1 [Example 41] , assay on human SPPL2a (Homo sapiens, UniProt Q8TCT8), is 7.23

Given the compound Cc1cc(F)cc2nc(C[C@@H](C)C(=O)N[C@@H]3C(=O)N4CCCN4Cc4ccccc43)[nH]c12 [Example 117] and test system human SPPL2a (Homo sapiens, UniProt Q8TCT8), the measured pIC50 is 6.85

Kindly note: human SPPL2a (Homo sapiens, UniProt Q8TCT8), Cc1nc(C2CCOCC2)sc1C(=O)NC[C@H](C(=O)N[C@@H]1C(=O)N2CCCN2Cc2ccccc21)C(F)(F)F [Example 50] , pIC50 value reported: 7.01

Record for C[C@H](CC(=O)Nc1cc(NC(=O)c2cccc(F)c2F)nn1C)C(=O)N[C@@H]1C(=O)N2CCCN2Cc2ccccc21 [Example 76] under target or system human SPPL2a (Homo sapiens, UniProt Q8TCT8): pIC50 reported as 8.30

Lab note: compound O=C(NC[C@H](C(=O)N[C@@H]1C(=O)N2CCCN2C(=O)c2ccccc21)C(F)(F)F)c1sc(-c2ccc(C(F)(F)F)nc2)nc1Cl [Example 40] tested on human SPPL2a (Homo sapiens, UniProt Q8TCT8); recorded pIC50 was 7.24

Given the compound CC[C@H](CNC(=O)c1c(C)noc1C(F)(F)F)C(=O)N[C@@H]1C(=O)N2CCCN2Cc2ccccc21 [Example 17] and test system human SPPL2a (Homo sapiens, UniProt Q8TCT8), the measured pIC50 is 7.96

Alright, here's another compound for you.
Entry Cc1nc(Cc2ccccc2)sc1C(=O)NC[C@@H](C)C(=O)N[C@@H]1C(=O)N2CCCN2Cc2ccccc21 [Example 58] , tested on human SPPL2a (Homo sapiens, UniProt Q8TCT8), has a reported pIC50 of 6.43
